All values here come from ChEMBL document CHEMBL1152061.

Measured log10 IC50 values are reported for all entries that follow.
- System: HepG2
- protocol: Compound was evaluated for the inhibition of cell proliferation of human hepatocellular carcinoma, HepG2 (ATCC HB8065).
- Type: functional, cell-based
Heads up: the numbers are on a log10 scale; they represent IC50 in µM.

A selection of reference data follows.
| smilesRepresentation | log10 IC50 |
| --- | --- |
| Cc1c(C(=O)O)c(O)cc2c1C(=O)c1c(O)c([C@@H]3O[C@H](CO)[C@@H](O)[C@H](O)[C@H]3O)c(O)c(O)c1C2=O | 3.25 |
| C[C@H]1c2cccc(O)c2C(=O)C2=C(O)[C@]3(O)C(=O)C(C(N)=O)=C(O)[C@@H](N(C)C)[C@@H]3[C@@H](O)[C@@H]21.O | 1.72 |

Fill in: log10 IC50 of `CO[C@@]12[C@H](COC(N)=O)C3=C(C(=O)C(C)=C(N)C3=O)N1C[C@@H]1N[C@@H]12` is ___
-0.57

Fill in: log10 IC50 of `CCn1cc(C(=O)O)c(=O)c2cnc(N3CCCC3)nc21` is ___
2.04

Fill in: log10 IC50 of `CN(C)[C@@H]1C(O)=C(C(N)=O)C(=O)[C@@]2(O)C(O)=C3C(=O)c4c(O)cccc4[C@@](C)(O)[C@H]3C[C@@H]12` is ___
2.11

Fill in: log10 IC50 of `O=c1[nH]cc(F)c(=O)[nH]1` is ___
1.93

----------
Measured IC50 values are reported for all entries that follow.
- protocol: Compound was evaluated for the inhibition of cell proliferation of human ocular lens epithelium (CECH).
- Format: functional, tissue-based
- runConditions: Lens of camera-type eye
Report as: number unit

A selection of reference data follows.
| smilesRepresentation | IC50 |
| --- | --- |
| CO[C@@]12[C@H](COC(N)=O)C3=C(C(=O)C(C)=C(N)C3=O)N1C[C@@H]1N[C@@H]12 | 0.09 µM |
| CN(C)[C@@H]1C(O)=C(C(N)=O)C(=O)[C@@]2(O)C(O)=C3C(=O)c4c(O)cccc4[C@@](C)(O)[C@H]3C[C@@H]12 | 207 µM |
| Cc1c(C(=O)O)c(O)cc2c1C(=O)c1c(O)c([C@@H]3O[C@H](CO)[C@@H](O)[C@H](O)[C@H]3O)c(O)c(O)c1C2=O | 1650 µM |

Fill in: IC50 of `C[C@H]1c2cccc(O)c2C(=O)C2=C(O)[C@]3(O)C(=O)C(C(N)=O)=C(O)[C@@H](N(C)C)[C@@H]3[C@@H](O)[C@@H]21.O` is ___
35 µM

Fill in: IC50 of `O=c1[nH]cc(F)c(=O)[nH]1` is ___
8 µM

Fill in: IC50 of `CCn1cc(C(=O)O)c(=O)c2cnc(N3CCCC3)nc21` is ___
184 µM
